assay: recombinant barcode read abundance after kanamycin selection (control-corrected) (log10(CPM+1)); higher = more efficient recombination; sequences stand for … in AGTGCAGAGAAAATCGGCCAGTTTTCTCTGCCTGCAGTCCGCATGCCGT…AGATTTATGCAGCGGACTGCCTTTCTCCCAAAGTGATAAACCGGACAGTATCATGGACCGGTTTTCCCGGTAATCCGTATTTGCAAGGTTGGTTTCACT; site = the 11-nt target;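 also: IS621 recombinase and bridge RNA in Escherichia coli cells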
Please use Fulfilled whenever recombinant barcode read abundance (log10) is not below 0.5, and Not fulfilled whenever it is.

[in] Tell me whether recombinant barcode read abundance (log10) is at least 0.5 here: GCCATACCTTGGGTTCTAACCTGTTGCCT (site GCCACACCTAG)
[out] Not fulfilled

[in] Tell me whether recombinant barcode read abundance (log10) is at least 0.5 here: ACTAACACTTGGGTTCTAACCTGTTGCCT (site ACTAACACTAG)
[out] Fulfilled

[in] Tell me whether recombinant barcode read abundance (log10) is at least 0.5 here: TGAATGTCTTGGGTTCTAACCTGTTGCCT (site TGAATGTCTAG)
[out] Fulfilled

---
[in] Tell me whether recombinant barcode read abundance (log10) is at least 0.5 here: CTAACTCCTTGGGTTCTAACCTGTTGCAT (site CTAAATCCTAT)
[out] Not fulfilled

[in] Tell me whether recombinant barcode read abundance (log10) is at least 0.5 here: CTTCAGACTTGGGTTCTAACCTGTTGCTA (site CTTCAGACTTA)
[out] Fulfilled

[in] Tell me whether recombinant barcode read abundance (log10) is at least 0.5 here: TAGTACTCTTGGGTTCTAACCTGTTGCTT (site TAGTACTCTGA)
[out] Not fulfilled

[in] Tell me whether recombinant barcode read abundance (log10) is at least 0.5 here: CGTGGGGCTTGGGTTCTAACCTGTTGCCT (site CGTATGGCTAG)
[out] Not fulfilled

[in] Tell me whether recombinant barcode read abundance (log10) is at least 0.5 here: GCACCTGCTTGGGTTCTAACCTGTTGCCT (site TATTTGCCTCA)
[out] Not fulfilled

[in] Tell me whether recombinant barcode read abundance (log10) is at least 0.5 here: GTCAAGCCTTGGGTTCTAACCTGTTGCTA (site GCCAAACCTTA)
[out] Not fulfilled

[in] Tell me whether recombinant barcode read abundance (log10) is at least 0.5 here: TACTGCTCTTGGGTTCTAACCTGTTGCTT (site TACGGCTCTAA)
[out] Not fulfilled
